Provenance of the data: paper PMC5336524

# Experimental Target: dopamine transporters (DAT) (Rattus norvegicus)
# Sequence (P23977 whole entry): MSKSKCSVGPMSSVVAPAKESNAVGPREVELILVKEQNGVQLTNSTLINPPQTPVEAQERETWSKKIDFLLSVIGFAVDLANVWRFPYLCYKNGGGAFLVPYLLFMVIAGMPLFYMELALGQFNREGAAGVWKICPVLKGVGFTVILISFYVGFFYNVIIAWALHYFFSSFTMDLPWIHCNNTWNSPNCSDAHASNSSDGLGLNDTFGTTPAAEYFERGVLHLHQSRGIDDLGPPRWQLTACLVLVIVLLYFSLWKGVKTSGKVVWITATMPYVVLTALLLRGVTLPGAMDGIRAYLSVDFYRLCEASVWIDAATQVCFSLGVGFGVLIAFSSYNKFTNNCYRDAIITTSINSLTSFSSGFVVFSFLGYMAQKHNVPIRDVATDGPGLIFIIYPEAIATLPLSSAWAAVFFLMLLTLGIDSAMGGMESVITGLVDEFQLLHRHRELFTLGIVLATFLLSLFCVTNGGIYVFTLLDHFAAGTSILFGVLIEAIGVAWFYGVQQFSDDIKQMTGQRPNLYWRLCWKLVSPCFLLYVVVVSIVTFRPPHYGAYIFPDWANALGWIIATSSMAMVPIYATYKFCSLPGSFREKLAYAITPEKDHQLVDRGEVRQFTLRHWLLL
# Test Summary: [3H]dopamine uptake inhibition in rat brain synaptosomes
# Format: biochemical
# Condition Description: [3H]DA uptake via DAT IC50, rat brain synaptosomes; 5 nM [3H]dopamine; mean ± SD, n = 3; inactive = no inhibition at 10,000 nM

Molecule	IC50, µM
CNC(COC)C(=O)c1ccc(C)cc1 (stereo not drawn)	6.84
CNC(C)C(=O)c1ccc(C)cc1 (stereo not drawn) [Mephedrone, reference compound]	1.06
CON(C)C(C)C(=O)c1ccc(C)cc1 (stereo not drawn)	6.09

---

# Experimental Target: UniProt P23977
# Test Summary: [3H]MPP+ release via DAT from rat brain synaptosomes
Quantity Measured: EC50 (µM)

Compound	Experimental Target	Quantity Measured	Measured Number
CON(C)C(C)C(=O)c1ccc(C)cc1 (centres unmarked)	UniProt P23977	EC50	0.666
CNC(C)C(=O)c1ccc(C)cc1 (centres unmarked) [Mephedrone, reference compound]	UniProt P23977	EC50	0.045

---

# Experimental Target: 5-HT transporters (SERT) (Rattus norvegicus)
# Test Summary: [3H]5-HT release via SERT from rat brain synaptosomes
# Format: biochemical
# Condition Description: releasing activity at SERT EC50, rat brain synaptosomes
pEC50: −log10 of the molar value.

Compound	pEC50
CNC(COC)C(=O)c1ccc(C)cc1 (stereo not shown)	5.60

---

# Experimental Target: norepinephrine transporters (NET) (Rattus norvegicus)
# Sequence (Q63380 1-617): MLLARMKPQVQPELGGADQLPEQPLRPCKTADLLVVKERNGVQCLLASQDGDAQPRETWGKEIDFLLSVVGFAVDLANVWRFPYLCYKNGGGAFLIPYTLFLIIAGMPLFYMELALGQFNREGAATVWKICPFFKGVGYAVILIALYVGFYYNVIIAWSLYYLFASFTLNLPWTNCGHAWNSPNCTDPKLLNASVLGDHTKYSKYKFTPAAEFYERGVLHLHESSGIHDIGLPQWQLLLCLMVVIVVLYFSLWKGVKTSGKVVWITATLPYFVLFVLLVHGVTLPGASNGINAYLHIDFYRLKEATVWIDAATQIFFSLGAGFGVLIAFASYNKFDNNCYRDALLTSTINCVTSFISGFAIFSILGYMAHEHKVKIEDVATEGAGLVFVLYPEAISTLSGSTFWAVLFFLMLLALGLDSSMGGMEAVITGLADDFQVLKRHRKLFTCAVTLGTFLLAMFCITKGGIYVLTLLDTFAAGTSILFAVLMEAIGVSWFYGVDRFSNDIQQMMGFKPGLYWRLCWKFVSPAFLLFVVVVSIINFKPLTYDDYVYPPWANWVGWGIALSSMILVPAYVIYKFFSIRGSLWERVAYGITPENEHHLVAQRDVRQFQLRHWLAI
# Test Summary: [3H]norepinephrine uptake inhibition in rat brain synaptosomes

Compound	IC50 [µM]
CNC(COC)C(=O)c1ccc(C)cc1 (stereo not drawn)	8.87
CON(C)C(C)C(=O)c1ccc(C)cc1 (stereo not drawn)	3.46
CNC(C)C(=O)c1ccc(C)cc1 (stereo not drawn) [Mephedrone, reference compound]	0.494

---

# Experimental Target: 5-HT transporters (SERT) (Rattus norvegicus, UniProt P31652)
# Sequence (P31652 whole entry): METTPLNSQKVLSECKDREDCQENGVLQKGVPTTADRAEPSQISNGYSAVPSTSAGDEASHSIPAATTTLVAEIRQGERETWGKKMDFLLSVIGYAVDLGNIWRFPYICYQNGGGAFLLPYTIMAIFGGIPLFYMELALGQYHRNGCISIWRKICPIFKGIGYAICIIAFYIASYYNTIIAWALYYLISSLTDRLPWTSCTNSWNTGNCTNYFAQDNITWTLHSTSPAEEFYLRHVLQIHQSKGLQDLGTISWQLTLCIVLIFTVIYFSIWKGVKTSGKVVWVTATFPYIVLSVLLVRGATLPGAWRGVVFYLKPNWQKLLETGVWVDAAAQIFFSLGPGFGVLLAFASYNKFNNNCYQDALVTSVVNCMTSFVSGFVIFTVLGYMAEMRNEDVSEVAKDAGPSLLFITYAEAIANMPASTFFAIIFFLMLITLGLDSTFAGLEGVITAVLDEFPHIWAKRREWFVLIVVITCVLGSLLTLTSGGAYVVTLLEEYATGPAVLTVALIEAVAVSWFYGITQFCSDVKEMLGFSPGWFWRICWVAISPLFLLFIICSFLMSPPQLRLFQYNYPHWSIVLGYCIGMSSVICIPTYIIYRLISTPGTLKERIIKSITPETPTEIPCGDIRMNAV
# Test Summary: [3H]5-HT release via SERT from rat brain synaptosomes
# Assay type: biochemical

Compound	EC50, µM
CON(C)C(C)C(=O)c1ccc(C)cc1 (stereo not shown)	1.04

---

# reported IC50; entries follow
# Experimental Target: serotonin transporters (SERT) (Rattus norvegicus)
# Test Summary: [3H]serotonin uptake inhibition in rat brain synaptosomes

Molecule	IC50 (µM)
CNC(COC)C(=O)c1ccc(C)cc1 (stereo not drawn)	5.29
CNC(C)C(=O)c1ccc(C)cc1 (stereo not drawn) [Mephedrone, reference compound]	0.47
CON(C)C(C)C(=O)c1ccc(C)cc1 (stereo not drawn)	3.33

---

# Experimental Target: UniProtKB P31652
# Test Summary: [3H]5-HT release via SERT from rat brain synaptosomes
# Format: biochemical
# Condition Description: [3H]5-HT release via SERT EC50, rat brain synaptosomes; 5 nM [3H]5-HT; mean ± SD, n = 3; inactive = efficacy less than 33% of maximal release
Quantity Measured: EC50 (nM)

Compound	Quantity Measured	Value Units	Measured Number
CNC(C)C(=O)c1ccc(C)cc1 (centres unmarked) [Mephedrone, reference compound]	EC50	nM	163
CNC(COC)C(=O)c1ccc(C)cc1 (centres unmarked) [Mexedrone]	EC50	nM	2520

---

# reported pEC50; entries follow
# Experimental Target: norepinephrine transporters (NET) (Rattus norvegicus)
# Test Summary: [3H]MPP+ release via NET from rat brain synaptosomes
pEC50: −log10 of the molar value.
Quantity Measured: pEC50

Compound	Measured Number
CON(C)C(C)C(=O)c1ccc(C)cc1 (centres unmarked)	6.50
CNC(C)C(=O)c1ccc(C)cc1 (centres unmarked) [Mephedrone, reference compound]	7.24
